tested on: TNF-α; experiment: TNF-α secretion (h) (PBMC); format: cell-based, human; conditions: LPS (1 μg/ml), 24 h/37° C., EIA, "Not active" = less than 25% inhibition at highest tested concentration 1000 nM, read-out: TNF-α secretion IC50
A collection of compounds and their measured IC50

Compound: C[C@]12C=CC(=O)C=C1CC[C@H]1[C@@H]3C[C@H]4OC(c5cccnc5)O[C@@]4(C(=O)CO)[C@@]3(C)C[C@H](O)[C@@]12F (stereo partly drawn) [Example 62]
Result operator: =
IC50 [nM]: 11
--
Compound: C[C@]12C=CC(=O)C=C1CC[C@H]1[C@@H]3C[C@H]4OC(c5cccnc5)O[C@@]4(C(=O)CO)[C@@]3(C)C[C@H](O)[C@@]12F (single isomer, unassigned) [Example 22S-epimer]
Result operator: >
IC50 [nM]: 1000
--
Compound: C[C@]12C=CC(=O)C=C1CC[C@H]1[C@@H]3C[C@H]4OC(c5cccnc5)O[C@@]4(C(=O)CO)[C@@]3(C)C[C@H](O)[C@@]12F (single isomer, unassigned) [Example 22R-epimer]
Result operator: =
IC50 [nM]: 12

----------
system: TNF-α; assay: TNF-α secretion (h) (PBMC); assay type: cell-based, human; conditions: Homo sapiens, 24 h, LPS (1 μg/ml), 24 h/37° C., EIA, "Not active" = less than 25% inhibition at highest tested concentration 1000 nM, read-out: TNF-α secretion IC50
pIC50: −log10 of the molar value.

Molecule: C[C@]12C=CC(=O)C=C1CC[C@@H]1[C@@H]2[C@@H](O)C[C@@]2(C)[C@H]1C[C@H]1OC(c3cccnc3)O[C@]12C(=O)CO (some centres unmarked)
Result operator: =
pIC50: 7.07
--
Molecule: C[C@]12C=CC(=O)C=C1CC[C@H]1[C@@H]3C[C@H]4O[C@@H](C5CCCCC5)O[C@@]4(C(=O)CO)[C@@]3(C)C[C@H](O)[C@@]12F
Result operator: =
pIC50: 8.92
--
Molecule: C[C@]12C=CC(=O)C=C1CC[C@H]1[C@@H]3C[C@H]4O[C@@H](C5CCCCC5)O[C@@]4(C(=O)CN4CCC4)[C@@]3(C)C[C@H](O)[C@@]12F
Result operator: <
pIC50: 6.00
--
Molecule: C[C@]12C=CC(=O)C=C1CC[C@@H]1[C@@H]2[C@@H](O)C[C@@]2(C)[C@H]1C[C@H]1O[C@@H](C3CCCCC3)O[C@]12C(=O)CO
Result operator: =
pIC50: 7.92
--
Molecule: C[C@]12C=CC(=O)C=C1CC[C@H]1[C@@H]3C[C@H]4O[C@@H](C5CCCCC5)O[C@@]4(C(=O)CN4CCOCC4)[C@@]3(C)C[C@H](O)[C@@]12F
Result operator: <
pIC50: 6.00
